Record form. Attribute: cell number. Fill in for each entry.
- Test system: TDF
- assayExplanation: cell number relative to DMSO (% of DMSO); higher = more cells (less growth inhibition / toxicity)
- conditionContext: concentration: 10 µM; 24 h
Answers are plain numbers.

These recorded examples may help you get a feel for the data.
{"compound": "COC(=O)/C=C/c1cccc(N(Cc2ccc(-c3ccc(N(C)C)cc3)cc2)C(=O)C2CCCCC2)c1", "cell number": 95.9}
{"compound": "Oc1cc2c(c(Cl)c1O)CCNCC2c1ccccc1 (centres undefined)", "cell number": 87.8}
{"compound": "CC1c2cccc(O)c2C(O)=C2C(=O)C3(O)C(O)=C(C(N)=O)C(=O)C(N(C)C)C3C(O)C21.Cl (centres undefined) [Doxycycline hydrochloride]", "cell number": 107}
{"compound": "O=C(O)C1CCCNC1 (racemic)", "cell number": 103}
{"compound": "CN(C)C(N)=NCCCC(N)C(=O)O.Cl (centres undefined) [N^G,N^G-Dimethylarginine hydrochloride]", "cell number": 96.5}

Would you be so kind as to report cell number for each listed record?
1. CN1c2cc3c(cc2N=C(c2ccc(C(=O)O)cc2)c2ccccc21)C(C)(C)CCC3(C)C
2. C=C(c1ccc(C(=O)O)cc1)c1cc2c(cc1C)C(C)(C)CCC2(C)C
3. CS(=O)(=O)Nc1ccc([N+](=O)[O-])cc1Oc1ccccc1 [Nimesulide]
4. CC1COc2c(N3CCN(C)CC3)c(F)cc3c(=O)c(C(=O)O)cn1c23 (centres undefined) [Ofloxacin]

(A)
1: 88.5; 2: 103; 3: 107; 4: 101

====

- Test system: HCC1569
- assayExplanation: cell number relative to DMSO (% of DMSO); higher = more cells (less growth inhibition / toxicity)
- conditionContext: concentration: 10 µM; 24 h
outcomeMeasure: cell number

Parameters: items (list). Returns: cell number for each item.
1. CC1CC2C(C(O)CC3(C)C2CCC3(O)C(=O)CO)C2(C)C=CC(=O)C=C12 (configuration not stated)
2. COc1cc(OC)cc(-c2cc3cnc(N)nc3nc2NC(=O)NC(C)(C)C)c1
3. COCCCCC(=NOCCN)c1ccc(C(F)(F)F)cc1.O=C(O)C=CC(=O)O [Fluvoxamine maleate]
4. CC(N=C(NC#N)Nc1ccncc1)C(C)(C)C (configuration not stated)
5. O=C(NCCNCC(O)COc1ccc(O)cc1)N1CCOCC1.O=C(O)C=CC(=O)O (configuration not stated) [Xamoterol hemifumarate]
6. Cc1cncc2cccc(S(=O)(=O)N3CCCN(C(=O)CN)CC3C)c12.Cl.Cl.O (configuration not stated)

(A)
1. 99.4
2. 84.2
3. 98.6
4. 103
5. 104
6. 78.3

(Q) What reported cell number corresponds to `Cc1cc(N)c2ccccc2[n+]1CCCCCCCCCCCCCC[n+]1c(C)cc(N)c2ccccc21.[I-].[I-]` on HCC1569?
(A) 101

====

- Tested on: HCC1569
- assayExplanation: H1.0 immunofluorescence intensity relative to DMSO (% of DMSO); higher = stronger H1.0 induction, active = 140 or more
- conditionContext: concentration: 10 µM; 24 h
Bench note: report the call from active, inactive

{"molecule": "Cl.Nc1ccn(C2OC(CO)C(O)C2O)c(=O)n1 [Cytosine-1-beta-D-arabinofuranoside hydrochloride]", "discreteLabel": "inactive"}
{"molecule": "CC1=NN(c2ccccc2)C(=O)C1", "discreteLabel": "inactive"}
{"molecule": "CC(C=CC1=C(C)CCCC1(C)C)=CC=CC(C)=CC(=O)Nc1ccc(O)cc1 [Fenretinide]", "discreteLabel": "active"}
{"molecule": "NC(=O)c1ncn(C2OC(CO)C(O)C2O)n1 (centres undefined)", "discreteLabel": "inactive"}

(Q) Can you look up the reported call for `COc1cc2ncnc(Nc3ccc(O)c(Br)c3)c2cc1OC` for me?
(A) inactive

(Q) Next molecule up: CC12CCC3c4ccc(O)cc4CC(CCCCCCCCCS(=O)CCCC(F)(F)C(F)(F)F)C3C1CCC2O (centres undefined)
(A) inactive

(Q) Field entry: CCCCCC(O)CC=C1C(=O)C=CC1CC=CCCCC(=O)O (centres undefined)
(A) inactive

(Q) `CCOC(=O)C1=C(C)NC(C)=C(C(=O)OCC)C1` ?
(A) inactive

(Q) Similarly, `O=C1c2ccccc2-n2c1nc1ccccc1c2=O` ?
(A) inactive
